Origin of measurements: patent US20260042731A1

System: Amaranthus rudis (AMATA), tall water hemp
ASSAY_OVERVIEW: Postemergence herbicide evaluation, growth of Amaranthus rudis (AMATA)
Format: in vivo
CONDITION_NOTES: Amaranthus tuberculatus, post-emergence, 168 h, read-out: Ave. AMATA
Item-by-item account of pest or weed control at 280 g/ha
Reply numerically in %, unit not repeated.

O=C(COc1ccc(Cl)cc1Cl)OCCCOC(=O)COc1ccc(Cl)cc1Cl | 70
O=C(COc1ccc(Cl)cc1Cl)OCc1ccccc1 [Compound E4, Benzyl 2-(2,4-dichlorophenoxy)acetate] | 68
N#C/C(=N\OC(=O)COc1ccc(Cl)cc1Cl)c1ccccc1 | 80

Proceed to the following item.
Query block: Quick check: pest or weed control at 280 g/ha of O=C(COc1ccc(Cl)cc1Cl)OCOC(=O)c1ccccc1 ?
Result block: 78
